Every entry's value here was drawn from patent EP0935963A2.

Experimental Target: MMP-1 (Homo sapiens, UniProt P03956)
Sequence (P03956 100-469): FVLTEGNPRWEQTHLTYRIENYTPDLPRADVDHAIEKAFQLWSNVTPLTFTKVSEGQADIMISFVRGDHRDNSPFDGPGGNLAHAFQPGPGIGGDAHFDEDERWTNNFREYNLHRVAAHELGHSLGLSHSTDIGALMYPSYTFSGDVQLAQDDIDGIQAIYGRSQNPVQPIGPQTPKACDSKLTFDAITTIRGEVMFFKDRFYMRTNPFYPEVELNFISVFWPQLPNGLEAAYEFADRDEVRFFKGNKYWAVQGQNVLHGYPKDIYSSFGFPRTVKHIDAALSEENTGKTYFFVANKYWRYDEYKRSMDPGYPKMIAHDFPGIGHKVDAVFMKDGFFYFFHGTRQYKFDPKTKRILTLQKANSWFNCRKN
Assay Notes: biochemical
Settings: Table 2; type I collagen film substrate; read-out: MMP-1 Type I Collagen IC50

{"Compound": "O=C(CN(Cc1cccnc1)S(=O)(=O)c1ccc(OCc2ccccc2)cc1)NO [Example 2]", "IC50 [µM]": 22}

###

Experimental Target: UniProt P45452
Assay Notes: Inhibition of MMP-13, fluorescence assay
Format: biochemical
Settings: fluorescent peptide substrate; read-out: MMP-13 Fluor. IC50
pIC50: −log10 of the molar value.

{"Smiles Notation": "O=C(CN(Cc1cccnc1)S(=O)(=O)c1ccc(OCc2ccccc2)cc1)NO", "pIC50": 8.27}

###

Experimental Target: MMP-13 (Homo sapiens, UniProt P45452)
Assay Notes: biochemical

{"Compound": "CNC(=O)[C@H](Cc1ccc(OC)cc1)NC(=O)C(CC(=O)NO)CC(C)C (some centres unmarked) [Example 1, reference compound]", "IC50 [nM]": 1.5}
{"Compound": "CNC(=O)C(Cc1ccc(OC)cc1)NC(=O)C(CCCCOc1ccccc1)CP(=O)(O)Cc1ccc(Cc2ccccc2)cc1 (centres unmarked)", "IC50 [nM]": 40}

###

Experimental Target: MMP-1 (Homo sapiens)
Assay Notes: biochemical
pIC50: −log10 of the molar value.
Readout: pIC50

{"Molecule": "CNC(=O)C(Cc1ccc(OC)cc1)NC(=O)C(CCCCOc1ccccc1)CP(=O)(O)Cc1ccc(Cc2ccccc2)cc1 (stereo not shown)", "Readout": "pIC50", "Measurement": 4.40}

###

Attribute: IC50
Experimental Target: cartilage conditioned medium collagenase activity
Assay Notes: Collagen film assay with cartilage conditioned medium as enzyme source
Format: biochemical
Settings: Table 3 (repeated for comparison)

{"Molecule": "CNC(=O)C(Cc1ccc(OC)cc1)NC(=O)C(CCCCOc1ccccc1)CP(=O)(O)Cc1ccc(Cc2ccccc2)cc1 (stereo not drawn)", "IC50 / nM": 400}
{"Molecule": "O=C(CN(Cc1cccnc1)S(=O)(=O)c1ccc(OCc2ccccc2)cc1)NO", "IC50 / nM": 220}
{"Molecule": "CNC(=O)[C@H](Cc1ccc(OC)cc1)NC(=O)C(CC(=O)NO)CC(C)C (stereo partly drawn) [Example 1, reference compound]", "IC50 / nM": 10}
